Sourced from patent US6863883B1

Consider the following compounds and their measured pH (45° C.) 2 weeks readings.
Test: Stability with time of a second solution of a permanent waving composition containing a direct dye (storage at 45° C.)
Format: physicochemical
Conditions: 0.2% dye in second solution, stored at 45° C., 2 weeks

smilesStr	pH (45° C.) 2 weeks
O=S(=O)([O-])c1ccc(N=Nc2c(O)ccc3ccccc23)cc1.[Na+]	6.43
Cn1cc[n+](C)c1N=Nc1ccc(N)cc1	6.40
Nc1c(N=Nc2ccc([N+](=O)[O-])cc2)c(S(=O)(=O)[O-])cc2cc(S(=O)(=O)[O-])c(N=Nc3ccccc3)c(O)c12.[Na+].[Na+]	6.44
Cc1ccc(Nc2ccc(O)c3c2C(=O)c2ccccc2C3=O)c(S(=O)(=O)[O-])c1.[Na+]	6.52
O=[N+]([O-])c1cc(N(CCO)CCO)ccc1NCCO	6.44
COc1ccc(N(C)N=Cc2cc[n+](C)cc2)cc1	6.42
O=[N+]([O-])c1ccccc1NCCO	6.42
